B1: unnamed (parent)
chain 1: METLCQRLNVCQDKILTHYENDSTDLRDHIDYWKHMRLECAIYYKAREMGFKHINHQVVPTLAVSKNKALQAIELQLTLETIYNSQYSNEKWTLQDVSLEVYLTAPTGCIKKHGYTVEVQFDGDICNTMHYTNWTHIYICEEASVTVVEGQVDYYGLYYVHEGIRTYFVQFKDDAEKYSKNKVWEVHAGGQVILCPTSVFSSNEVSSPEIIRQHLANHPAATHTKAVALGTEETQTTIQRPRSEPDTGNPCHTTKLLHRDSVDSAPILTAFNSSHKGRINCNSNTTPIVHLKGDANTLKCLRYRFKKHCTLYTAVSSTWHWTGHNVKHKSAIVTLTYDSEWQRDQFLSQVKIPKTITVSTGFMSI
chain 2: KAGRAEAEGLRAALAGAEVVRKNLEEGSQRELEEVQRLHQEQLSSLTQAHEEALSSLTSKAEGLEKSLSSLETRRAGEAKELAEAQREAELLRKQLSKTQEDLEAQVTLVENLRKYVGEQVPSEVHSQTWELERQKLLETMQHLQEDRDSLHATAELLQVRVQSLTHILALQEEELTRKVQPSDSLEPEFTRKCQSLLNRWREKVFALMVQLKAQELEHSDSVKQLKGQVASLQEKVTSQSQEQAILQRSLQDKAAEVEVERMGAKGLQLELSRAQEARRRWQQQTASAEEQLRLVVNAVSSSQIWLETTMAKVEGAAAQLPSLNNRLSYAVRKVHTIRGLIARKLALAQLRQESCPLPPPVTDVSLELQQLREERNRLDAELQLSARLIQQEVGRAREQGEAERQQLSKVAQQLEQELQQTQESLASLGLQLEVARQGQQESTEEAASLRQELTQQQELYGQALQEKVAEVETRLREQLSDTERRLNEARREHAKAVVSLRQIQRRAAQEKERSQELRRLQEEARKEEGQRLARRLQELERDKNLMLATLQQEGLLSRYKQQRLLTVLPSLLDKKKSVVSSPRPPECSASAPVAAAVPTRESIKGSLSVLLDDLQDLSEAISKEEAVCQGDNLDRCSSSNPQMSS

Variants of: B1
Test Description: GPCA
Condition Label: with partner chain of the complex shown;; read off a plot
variants and their reported ratio to parent
Answer with a number only.

Consider the following illustrative entries.
[[record]]
mutant_label = "chain 1 E39A"
experimental_value = 0.92

[[record]]
mutant_label = "chain 1 R37A"
experimental_value = 0.06


Return reported ratio to parent; argument: chain 1 N181T 0.93

Please answer likewise for chain 1 R27D 0.66

Please answer likewise for chain 1 I73A 0.11
